System: Botrytis cinerea
protocolNotes: Antifungal activity against Botrytis cinerea at 500 ug/ml relative to control
Type: functional
measurementLabel: inhibition at 500 µg/mL (%)
Give bare numbers, in %.

Some solved entries appear below for comparison.
COc1ccc(-c2nnc(NC(=O)C3CC3)s2)cc1
79.4
Cc1nnc(NC(=O)C2CC2)s1
67.5
O=C(Nc1nnc(-c2ccc([N+](=O)[O-])cc2)s1)C1CC1
30.3
CCCc1nnc(NC(=O)C2CC2)s1
57.9
Cc1cc(C)nc(Nc2ccccc2)n1
99.2

Dear colleague, could you send me inhibition at 500 µg/mL for each of the items below? Thanks.
1. O=C(Nc1nnc(-c2ccccc2Cl)s1)C1CC1
2. O=C(Nc1nncs1)C1CC1
3. Cc1ccccc1-c1nnc(NC(=O)C2CC2)s1

Key:
35.1
83.7
75.1
